# Tested on: Vero
# EXPERIMENT DESCRIPTION: Cytotoxicity against African green monkey Vero cells assessed as reduction in cell viability measured after 72 hrs by MTS assay
# Format: cell-based
# PROTOCOL CONDITIONS: chlorocebus sabaeus
QUANTITY: CC50

O=c1ccn([C@H]2[C@H](O)[C@H](O)[C@@H](CO)C2(F)F)c(=O)[nH]1	> 50 µM
CNc1ncnc2c1ncn2[C@H]1[C@H](O)[C@H](O)[C@@H](CO)[C@H]1F	> 50 µM
CC(C)OC(=O)[C@H](C)N[P@](=O)(OC[C@@H]1[C@@H](O)[C@@H](O)[C@H](n2ccc(=O)[nH]c2=O)C1(F)F)Oc1ccccc1	> 50 µM

Would you mind listing CC50 for each of the following compounds?
1. Nc1ccn([C@H]2[C@H](O)[C@H](O)[C@@H](CO)[C@H]2F)c(=O)n1
2. CC(C)OC(=O)[C@H](C)N[P@](=O)(OC[C@@H]1[C@@H](O)[C@@H](O)[C@H](n2cnc3c(N)ncnc32)C1(F)F)Oc1ccccc1
3. CNc1ncnc2c1ncn2[C@H]1[C@H](O)[C@H](O)[C@@H](CO)C1(F)F
4. Nc1ncnc2c1ncn2[C@H]1[C@H](O)[C@H](O)[C@@H](CO)[C@H]1F
5. O=c1ccn([C@H]2[C@H](O)[C@H](O)[C@@H](CO)[C@@H]2F)c(=O)[nH]1

**Result**
["> 100 µM", "> 50 µM", "12.5 µM", "0.6 µM", "> 100 µM"]

###

# EXPERIMENT DESCRIPTION: Cytotoxicity against African green monkey Vero E6 cells assessed as reduction in cell viability measured after 72 hrs by MTS assay
# Type: cell-based, Vero C1008
# PROTOCOL CONDITIONS: chlorocebus sabaeus, Vero E6 cells (Vero C1008)
Provide the reported CC50 at 72 h of each item.

Observe how each entry below is paired with its result.
Nc1ncnc2c1ncn2[C@H]1[C@H](O)[C@H](O)[C@@H](CO)C1(F)F	1.25 to 5.9 µM
Nc1ncnc2c1ncn2[C@H]1[C@H](O)[C@H](O)[C@@H](CO)[C@H]1F	> 100 µM
Nc1ncnc2c1ncn2[C@@H]1C[C@H](CO)[C@@H](O)[C@H]1O	2.4 to 6.3 µM

Shift focus to the following entry.
**Query** Bench note: what CC50 at 72 h did CC(C)OC(=O)[C@H](C)N[P@](=O)(OC[C@@H]1[C@@H](O)[C@@H](O)[C@H](n2cnc3c(N)ncnc32)C1(F)F)Oc1ccccc1 show?
**Result** 12.5 to 25 µM

###

# EXPERIMENT DESCRIPTION: Selectivity index, ratio of CC50 for African green monkey Vero E6 cells to EC50 for inhibition of RNA-dependent RNA polymerase in SARS-CoV Frankfurt1 infected in African green monkey Vero E6 cells assessed as reduction in virus-induced cytopathic effect
# Type: toxicity, Vero C1008
# PROTOCOL CONDITIONS: read-out: Ratio CC50/EC50
QUANTITY: selectivity ratio
Numbers only.

**Query** Bench note: what selectivity ratio did Nc1ncnc2c1ncn2[C@H]1[C@H](O)[C@H](O)[C@@H](CO)C1(F)F show?
**Result** 11.8

###

# EXPERIMENT DESCRIPTION: Selectivity index, ratio of CC50 for African green monkey Vero E6 cells to EC50 for inhibition of RNA-dependent RNA polymerase in CHIKV LS3 infected in African green monkey Vero E6 cells assessed as reduction in virus-induced cytopathic effect
# Type: toxicity, Vero C1008
# PROTOCOL CONDITIONS: read-out: Ratio CC50/EC50
QUANTITY: selectivity ratio

Nc1ncnc2c1ncn2[C@H]1[C@H](O)[C@H](O)[C@@H](CO)C1(F)F	> 9.6

**Query** Bench note: what selectivity ratio did CC(C)OC(=O)[C@H](C)N[P@](=O)(OC[C@@H]1[C@@H](O)[C@@H](O)[C@H](n2cnc3c(N)ncnc32)C1(F)F)Oc1ccccc1 show?
**Result** > 6.4
